system: Acinetobacter baumannii FADDI-AB030; assay: microbe, parasite or virus in culture; format: cell-based; settings: FADDI-AB030
Where a SMILES comes first, the peptide text is derived from it. Bridges are numbered along the chain shown (N, C = ends). [ ]: non-standard residue; d: D form. The star is where a group is joined. Benzothiophen(2-yl)carbonyl = O=C(c1cc2ccccc2s1)*; X35 = O=C(c1cc(-c2ccc(Cl)cc2)on1)*; X44 = O=C(c1cc(-c2ccccc2)no1)*; X46 = O=C(c1cc(Br)nc(Br)c1)*; X1 = O=C(c1ncc(Cl)cc1Cl)*; X33 = O=C(c1cncc(Br)c1)*; Dab = NCC[C@H](N)C(=O)O; Abu = CC[C@H](N)C(=O)O; Dap = NC[C@H](N)C(=O)O
Listing of entries alongside the reported Minimum inhibitory concentration.
Answer with the figure and its unit, nothing else.

# compound, measuredMetric, resultValue
measured = [
    ("CC[C@@H]1NC(=O)[C@@H](CC(C)C)NC(=O)[C@H](CCN)NC(=O)[C@@H](NC(=O)[C@H](CN)NC(=O)[C@@H](NC(=O)[C@H](CCN)NC(=O)c2cncc(Br)c2)[C@@H](C)O)CCNC(=O)[C@H]([C@@H](C)O)NC(=O)[C@H](CCN)NC(=O)[C@H](CCN)NC1=O [Compound 23] (X33-[Dab]T[Dap][Dab][Dab][dL][Abu][Dab][Dab]T; lactam 4-C)", "Minimum inhibitory concentration", "0.5 µg/mL"),
    ("CC[C@@H]1NC(=O)[C@@H](CC(C)C)NC(=O)[C@H](CCN)NC(=O)[C@@H](NC(=O)[C@H](CN)NC(=O)[C@@H](NC(=O)[C@H](CCN)NC(=O)c2cc3ccccc3s2)[C@@H](C)O)CCNC(=O)[C@H]([C@@H](C)O)NC(=O)[C@H](CCN)NC(=O)[C@H](CCN)NC1=O [Compound 50] ({Benzothiophen(2-yl)carbonyl}-[Dab]T[Dap][Dab][Dab][dL][Abu][Dab][Dab]T; lactam 4-C)", "Minimum inhibitory concentration", "0.5 µg/mL"),
    ("CC[C@@H]1NC(=O)[C@@H](CC(C)C)NC(=O)[C@H](CCN)NC(=O)[C@@H](NC(=O)[C@H](CN)NC(=O)[C@@H](NC(=O)[C@H](CCN)NC(=O)c2cc(-c3ccccc3)no2)[C@@H](C)O)CCNC(=O)[C@H]([C@@H](C)O)NC(=O)[C@H](CCN)NC(=O)[C@H](CCN)NC1=O [Compound 87] (X44-[Dab]T[Dap][Dab][Dab][dL][Abu][Dab][Dab]T; lactam 4-C)", "Minimum inhibitory concentration", "0.5 µg/mL"),
    ("CC(C)C[C@H]1NC(=O)[C@H](CCN)NC(=O)[C@@H](NC(=O)[C@H](CN)NC(=O)[C@@H](NC(=O)[C@H](CCN)NC(=O)c2ncc(Cl)cc2Cl)[C@@H](C)O)CCNC(=O)[C@H]([C@@H](C)O)NC(=O)[C@H](CCN)NC(=O)[C@H](CCN)NC(=O)[C@H]([C@@H](C)O)NC1=O [Compound 8] (X1-[Dab]T[Dap][Dab][Dab][dL]T[Dab][Dab]T; lactam 4-C)", "Minimum inhibitory concentration", "4 µg/mL"),
]

Inquiry: State the recorded Minimum inhibitory concentration for this entry: CC[C@@H]1NC(=O)[C@@H](CC(C)C)NC(=O)[C@H](CCN)NC(=O)[C@@H](NC(=O)[C@H](CN)NC(=O)[C@@H](NC(=O)[C@H](CCN)NC(=O)c2cc(Br)nc(Br)c2)[C@@H](C)O)CCNC(=O)[C@H]([C@@H](C)O)NC(=O)[C@H](CCN)NC(=O)[C@H](CCN)NC1=O [Compound 28] (X46-[Dab]T[Dap][Dab][Dab][dL][Abu][Dab][Dab]T; lactam 4-C)
Reply text: 0.25 µg/mL

Inquiry: Lookup CC[C@@H]1NC(=O)[C@@H](CC(C)C)NC(=O)[C@H](CCN)NC(=O)[C@@H](NC(=O)[C@H](CN)NC(=O)[C@@H](NC(=O)[C@H](CCN)NC(=O)c2cc(-c3ccc(Cl)cc3)on2)[C@@H](C)O)CCNC(=O)[C@H]([C@@H](C)O)NC(=O)[C@H](CCN)NC(=O)[C@H](CCN)NC1=O [Compound 94] (X35-[Dab]T[Dap][Dab][Dab][dL][Abu][Dab][Dab]T; lactam 4-C)
Reply text: 0.25 µg/mL
